Recorded values, source patent US20100063074A1.

# Tested on: H1376
# assay: Cell growth inhibition IC50 (methylene blue), H1376
# particulars: Homo sapiens, 72 h, read-out: Growth Inhibition (IC50 μM)
reported-endpoint: IC50

GET /values?readout=IC50&system=H1376&item= CS(=O)(=O)CCNCc1ccc(-c2ccc3ncnc(Nc4ccc(OCc5cccc(F)c5)c(Cl)c4)c3c2)o1.Cc1ccc(S(=O)(=O)O)cc1 [GW572016F, ditosylate monohydrate]
3.34 µM

====

# System: CaLu3
# assay: Cell growth inhibition IC50, CaLu3
# particulars: Homo sapiens, Calu-3, read-out: Growth Inhibition (IC50 μM)
reported-endpoint: IC50 (µM)
Reply with just the number (in µM).

Requested field: IC50. Item: CS(=O)(=O)CCNCc1ccc(-c2ccc3ncnc(Nc4ccc(OCc5cccc(F)c5)c(Cl)c4)c3c2)o1.Cc1ccc(S(=O)(=O)O)cc1 [GW572016F, ditosylate monohydrate]
0.057

====

# System: SW480
# assay: Cell growth inhibition IC50, SW480
# particulars: Homo sapiens, SW480, read-out: Growth Inhibition (IC50 μM)
reported-endpoint: IC50 (µM)
Reply with just the number (in µM).

Requested field: IC50. Item: CS(=O)(=O)CCNCc1ccc(-c2ccc3ncnc(Nc4ccc(OCc5cccc(F)c5)c(Cl)c4)c3c2)o1.Cc1ccc(S(=O)(=O)O)cc1 [GW572016F, ditosylate monohydrate]
6.86

====

# Test system: LS174T
# assay: Cell growth inhibition IC50, LS174T
# Format: cell-based
# particulars: Homo sapiens, Colon adenocarcinoma
reported-endpoint: IC50 (µM)
Reply with just the number (in µM).

Requested field: IC50. Item: CS(=O)(=O)CCNCc1ccc(-c2ccc3ncnc(Nc4ccc(OCc5cccc(F)c5)c(Cl)c4)c3c2)o1.Cc1ccc(S(=O)(=O)O)cc1 [GW572016F, ditosylate monohydrate]
1.51

====

# Test system: A431
# assay: Cell growth inhibition IC50, A431
# particulars: Homo sapiens, A-431, read-out: Growth Inhibition (IC50 μM)
reported-endpoint: IC50 (µM)
Reply with just the number (in µM).

Requested field: IC50. Item: CS(=O)(=O)CCNCc1ccc(-c2ccc3ncnc(Nc4ccc(OCc5cccc(F)c5)c(Cl)c4)c3c2)o1.Cc1ccc(S(=O)(=O)O)cc1 [GW572016F, ditosylate monohydrate]
0.23

====

# Test system: SW837
# assay: Cell growth inhibition IC50, SW837
# particulars: Homo sapiens, SW837, read-out: Growth Inhibition (IC50 μM)
reported-endpoint: IC50 (µM)
Reply with just the number (in µM).

Requested field: IC50. Item: CS(=O)(=O)CCNCc1ccc(-c2ccc3ncnc(Nc4ccc(OCc5cccc(F)c5)c(Cl)c4)c3c2)o1.Cc1ccc(S(=O)(=O)O)cc1 [GW572016F, ditosylate monohydrate]
4.7

====

# Test system: HMEC
# assay: Cell growth inhibition IC50, HMEC
# particulars: Homo sapiens, read-out: Growth Inhibition (IC50 μM)
reported-endpoint: IC50 (µM)
Reply with just the number (in µM).

Requested field: IC50. Item: CS(=O)(=O)CCNCc1ccc(-c2ccc3ncnc(Nc4ccc(OCc5cccc(F)c5)c(Cl)c4)c3c2)o1.Cc1ccc(S(=O)(=O)O)cc1 [GW572016F, ditosylate monohydrate]
1.34

====

# Tested on: 786O
# assay: Cell growth inhibition IC50, 786O
# particulars: Homo sapiens, 786-0, read-out: Growth Inhibition (IC50 μM)
reported-endpoint: IC50 (µM)
Reply with just the number (in µM).

Requested field: IC50. Item: CS(=O)(=O)CCNCc1ccc(-c2ccc3ncnc(Nc4ccc(OCc5cccc(F)c5)c(Cl)c4)c3c2)o1.Cc1ccc(S(=O)(=O)O)cc1 [GW572016F, ditosylate monohydrate]
1.82

====

# System: NCI-H727
# assay: Cell growth inhibition IC50, NCI-H727
# Assay type: cell-based
# particulars: Homo sapiens, Lung carcinoid bronchus
reported-endpoint: IC50 (µM)
Reply with just the number (in µM).

Requested field: IC50. Item: CS(=O)(=O)CCNCc1ccc(-c2ccc3ncnc(Nc4ccc(OCc5cccc(F)c5)c(Cl)c4)c3c2)o1.Cc1ccc(S(=O)(=O)O)cc1 [GW572016F, ditosylate monohydrate]
7.59
